Target: T1, recombinant human CD123-Fc (human, UniProt P26951 19-305)
T1 construct: not shown: Fc part of CD123-Fc
T1 sequence: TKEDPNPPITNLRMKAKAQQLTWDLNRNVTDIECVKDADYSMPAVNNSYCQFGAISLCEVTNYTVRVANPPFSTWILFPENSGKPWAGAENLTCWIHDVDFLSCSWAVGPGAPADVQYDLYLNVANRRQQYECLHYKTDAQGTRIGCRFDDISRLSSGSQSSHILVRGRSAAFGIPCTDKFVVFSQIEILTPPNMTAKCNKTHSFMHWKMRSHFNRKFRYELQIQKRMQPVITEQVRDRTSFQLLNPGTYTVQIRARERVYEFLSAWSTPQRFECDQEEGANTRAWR
Assay: phage ELISA, A450 target/A450 IgG1-Fc
Short version: ELISA_avg at least 5 ratio is Fulfilled, less is Not fulfilled.

[
  {
    "BINDER": "SEQ ID NO 643 (designed binder) MGSWWEFSWRLEAIETRLDALGGSEAELAFFEMDIAWFEQDLQLYKGKGNPEVEALEEEAYAIYEELEAYRHN",
    "LABEL VALUE": "Not fulfilled"
  },
  {
    "BINDER": "SEQ ID NO 669 (designed binder) MGSWNEFWERLDAIEWRLFALGGSEAELAFFELDIAWFEEELQWYKGKGNPEVEALIFEAHAITLELDAYRHN",
    "LABEL VALUE": "Not fulfilled"
  },
  {
    "BINDER": "SEQ ID NO 647 (designed binder) MGSWAEFDDRLEAIEYRLHALGGSEAELAWFEEGIAGFEHALQSYKGKGNPEVEALETEAGAINEELWAYRHN",
    "LABEL VALUE": "Fulfilled"
  },
  {
    "BINDER": "SEQ ID NO 667 (designed binder) MGSWEEFDDRLDAIEHRLWALGGSEAELADFEGSIAAFESWLQVYKGKGNPEVEALEAEAEAIADELWAYRHN",
    "LABEL VALUE": "Not fulfilled"
  }
]
